pKi values recorded for Sodium-dependent noradrenaline transporter (Homo sapiens, UniProt P23975)
Lab note: report pKi as minus log10 of the concentration in molar units, number only.

Enquiry: Which pKi value belongs to COC(=O)[C@H]1C2CCC(C[C@@H]1c1ccc(F)cc1)N2C (stereo not given in full) ?
Return: 5.36

Enquiry: Recorded pKi for COC(=O)[C@H]1[C@H]2CCC(C[C@H]1c1ccc(C)cc1)N2C , please?
Return: 5.71

Enquiry: For the compound shown here, COC(=O)[C@@H]1C2CC[C@H](C[C@@H]1c1ccc(I)cc1)N2C , give the reported pKi.
Return: 7.66

Enquiry: Item under review: COC(=O)[C@@H]1C2CCC(C[C@H]1c1ccc(I)cc1)N2C (stereo not given in full) . Reported pKi?
Return: 7.49

Enquiry: Name the reported pKi value associated with the compound COC(=O)[C@@H]1C2CCC(C[C@H]1c1ccccc1)N2C (stereo not given in full)
Return: 6.57

====

What follows is a record of IC50 for Sodium-dependent dopamine transporter (Homo sapiens, UniProt Q01959).
A number alone suffices; assume nM.

Enquiry: Look at this molecule and give its reported IC50. COC(=O)C1C2CC[C@H](C[C@@H]1c1ccc(Cl)cc1)N2C (stereo partly specified)
Return: 1.1

Enquiry: I have this molecule here, COC(=O)[C@@H]1C2CCC(C[C@H]1c1ccc(I)cc1)N2C (stereo partly specified) , and I need its recorded IC50.
Return: 2.9

Enquiry: Any idea what its IC50 is? The molecule is COC(=O)[C@@H]1C2CCC(C[C@H]1c1ccc(C)cc1)N2C (stereo partly specified)
Return: 10.2

Enquiry: For the molecule shown here, COC(=O)[C@H]1C2CCC(C[C@@H]1c1ccccc1)N2C (stereo partly specified) , give the reported IC50.
Return: 670

Enquiry: So what does the record say about IC50 for COC(=O)[C@@H]1C2CCC(C[C@@H]1c1ccc(Br)cc1)N2C (stereo partly specified) ?
Return: 1.7

Enquiry: Recorded IC50 of COC(=O)[C@@H]1C2CCC(C[C@H]1c1ccc(Cl)cc1)N2C (stereo partly specified) , please.
Return: 3.1

Enquiry: What does the data say about its IC50? Entry: COC(=O)[C@H]1C2CCC(C[C@@H]1c1ccc(Br)cc1)N2C (stereo partly specified)
Return: 15.7

Enquiry: IC50 lookup needed for COC(=O)[C@@H]1C2CC[C@H](C[C@@H]1c1ccc(C)cc1)N2C , thanks.
Return: 1.7

Enquiry: Could you tell me which IC50 is on file for COC(=O)[C@@H]1C2CCC(C[C@H]1c1ccc(Br)cc1)N2C (stereo partly specified) ?
Return: 1.7

Enquiry: Consider the molecule shown here: COC(=O)[C@H]1C2CCC(C[C@@H]1c1ccc(I)cc1)N2C (stereo partly specified) What is its recorded IC50?
Return: 22.7

Enquiry: Report IC50 for COC(=O)[C@H]1C2CCC(C[C@@H]1c1ccc(Cl)cc1)N2C (stereo partly specified) please.
Return: 25

====

# Tested on: Rattus norvegicus
# experiment.description: Drug discrimination effect in CD Albino rat assessed as percent of rat choosing cocaine lever at 0.1 mg/kg, ip
# Assay type: functional
# study.conditions: route intraperitoneal
measurement.label: Activity (%)
# unit: % | format: bare number

Enquiry: Give the measured Activity of COC(=O)[C@@H]1C2CC[C@H](C[C@@H]1c1ccc(I)cc1)N2C .
Return: 22

Enquiry: // Activity lookup, key: COC(=O)[C@@H]1C2CCC(C[C@@H]1c1ccc(Br)cc1)N2C (some centres undefined)
Return: 14

Enquiry: Look up Activity for this molecule: COC(=O)C1C2CC[C@H](C[C@@H]1c1ccc(Cl)cc1)N2C (some centres undefined)
Return: 50

Enquiry: Can you look up the measured Activity of COC(=O)[C@@H]1C2CC[C@H](C[C@@H]1c1ccc(C)cc1)N2C for me?
Return: 0
